- Test system: human gastric cancer cell line MGC-803
- TEST METHOD NOTES: MTT assay, MGC-803 cells
- Format: cell-based
- RECORDED CONDITIONS: 72 h after treatment
ASSAY ENDPOINT: IC50 (µM)

Would you please look over these solved cases?
molecule="Cc1ccc2ncnc(Oc3ccccc3/C=C/C(=O)/C=C/c3ccccc3F)c2c1 [Compound 5a]" unit_descriptor=µM reported=7.69
molecule="COc1ccc(OC)c(/C=C/C(=O)/C=C/c2ccccc2Oc2ncnc3ccc(C)cc23)c1 [Compound 5g]" unit_descriptor=µM reported=2.02

1: Cc1cccc2c(Oc3ccccc3/C=C/C(=O)/C=C/c3ccccc3F)ncnc12 [Compound 5h]
2: Cc1ccc2ncnc(Oc3ccccc3/C=C/C(=O)/C=C/c3c(Cl)cccc3Cl)c2c1 [Compound 5f]
Task: Which numeric IC50 is bigger, that of 1 or that of 2 ? Pick one; state its label.
Result: 1

A: Cc1cccc2c(Oc3ccccc3/C=C/C(=O)/C=C/c3ccccc3Cl)ncnc12 [Compound 5i]
B: COc1ccc(OC)c(/C=C/C(=O)/C=C/c2ccccc2Oc2ncnc3c(C)cccc23)c1 [Compound 5n]
C: Cc1ccc2ncnc(Oc3ccccc3/C=C/C(=O)/C=C/c3ccc(Cl)cc3Cl)c2c1 [Compound 5e]
Task: Please list the entries, largest IC50 first. To answer, arrange all of the labels according to the requested order.
Result: A, B, C

* * *

- Test system: human gastric cancer cell line MGC-803
- TEST METHOD NOTES: MTT assay, MGC-803 cells
- Type: cell-based
- RECORDED CONDITIONS: 72 h after treatment
ASSAY ENDPOINT: IC50 (µM)

Would you please look over these solved cases?
compound="Cc1cccc2c(Oc3ccccc3/C=C/C(=O)/C=C/c3c(Cl)cccc3Cl)ncnc12 [Compound 5m]" assay_endpoint=IC50 unit_descriptor=µM reported=2.05
compound="Cc1cccc2c(Oc3ccccc3/C=C/C(=O)/C=C/c3ccc(Cl)cc3Cl)ncnc12 [Compound 5l]" assay_endpoint=IC50 unit_descriptor=µM reported=4.33
compound="COc1cccc2c1C(=O)c1c(O)c3c(c(O)c1C2=O)C[C@@](O)(C(=O)CO)C[C@@H]3O[C@H]1C[C@H](N)[C@H](O)[C@H](C)O1 [ADM, Adriamycin, reference compound]" assay_endpoint=IC50 unit_descriptor=µM reported=0.74
compound="Cc1ccc2ncnc(Oc3ccccc3/C=C/C(=O)/C=C/c3ccccc3Cl)c2c1 [Compound 5b]" assay_endpoint=IC50 unit_descriptor=µM reported=5.2
compound="Cc1ccc2ncnc(Oc3ccccc3/C=C/C(=O)/C=C/c3ccc(Cl)cc3)c2c1 [Compound 5c]" assay_endpoint=IC50 unit_descriptor=µM reported=5.44

I: Cc1cccc2c(Oc3ccccc3/C=C/C(=O)/C=C/c3cc([N+](=O)[O-])ccc3Cl)ncnc12 [Compound 5k]
II: Cc1ccc2ncnc(Oc3ccccc3/C=C/C(=O)/C=C/c3cc([N+](=O)[O-])ccc3Cl)c2c1 [Compound 5d]
Task: Hello, I am sorting some records. Could you say if I or II has the smaller IC50 value? Pick one; state its label.
Result: II
(II: 1.72 µM, I: 2.94 µM)

* * *

- System: human prostate cancer cell line PC3
- TEST METHOD NOTES: MTT assay, PC3 cells
- Assay type: cell-based
- RECORDED CONDITIONS: PC-3, 72 h after treatment
ASSAY ENDPOINT: IC50 (µM)

query_smiles=COc1ccc(OC)c(/C=C/C(=O)/C=C/c2ccccc2Oc2ncnc3c(C)cccc23)c1 unit_descriptor=µM reported=4.16
query_smiles=Cc1cccc2c(Oc3ccccc3/C=C/C(=O)/C=C/c3cc([N+](=O)[O-])ccc3Cl)ncnc12 unit_descriptor=µM reported=8.12

P: Cc1ccc2ncnc(Oc3ccccc3/C=C/C(=O)/C=C/c3c(Cl)cccc3Cl)c2c1
Q: Cc1cccc2c(Oc3ccccc3/C=C/C(=O)/C=C/c3ccccc3Cl)ncnc12
Task: Hello, I am sorting some records. Could you say if P or Q has the smaller IC50 value? Pick one; state its label.
Result: P

* * *

- System: human prostate cancer cell line PC3
- TEST METHOD NOTES: MTT assay, PC3 cells
- Format: cell-based
- RECORDED CONDITIONS: PC-3, 72 h after treatment
ASSAY ENDPOINT: IC50 (µM)

Would you please look over these solved cases?
compound="COc1cccc2c1C(=O)c1c(O)c3c(c(O)c1C2=O)C[C@@](O)(C(=O)CO)C[C@@H]3O[C@H]1C[C@H](N)[C@H](O)[C@H](C)O1 [ADM, Adriamycin, reference compound]" reported=1.01
compound="Cc1ccc2ncnc(Oc3ccccc3/C=C/C(=O)/C=C/c3cc([N+](=O)[O-])ccc3Cl)c2c1 [Compound 5d]" reported=2.68
compound="Cc1ccc2ncnc(Oc3ccccc3/C=C/C(=O)/C=C/c3ccccc3F)c2c1 [Compound 5a]" reported=9.24

1: Cc1ccc2ncnc(Oc3ccccc3/C=C/C(=O)/C=C/c3ccccc3Cl)c2c1 [Compound 5b]
2: COc1ccc(OC)c(/C=C/C(=O)/C=C/c2ccccc2Oc2ncnc3ccc(C)cc23)c1 [Compound 5g]
Task: Hello, I am sorting some records. Could you say if 1 or 2 has the smaller IC50 value? Pick one; state its label.
Result: 2
(2: 2.18 µM, 1: 8.12 µM)

a: Cc1cccc2c(Oc3ccccc3/C=C/C(=O)/C=C/c3ccc(Cl)cc3Cl)ncnc12 [Compound 5l]
b: Cc1ccc2ncnc(Oc3ccccc3/C=C/C(=O)/C=C/c3ccc(Cl)cc3Cl)c2c1 [Compound 5e]
Task: Which numeric IC50 is bigger, that of a or that of b ? Pick one; state its label.
Result: a

* * *

- Test system: human prostate cancer cell line PC3
- TEST METHOD NOTES: MTT assay, PC3 cells
- Format: cell-based
- RECORDED CONDITIONS: PC-3, 72 h after treatment
ASSAY ENDPOINT: IC50 (µM)

Would you please look over these solved cases?
query_smiles=Cc1cccc2c(Oc3ccccc3/C=C/C(=O)/C=C/c3ccccc3F)ncnc12 unit_descriptor=µM reported=11.7
query_smiles=Cc1ccc2ncnc(Oc3ccccc3/C=C/C(=O)/C=C/c3ccc(Cl)cc3)c2c1 unit_descriptor=µM reported=7.85

a: Cc1cccc2c(Oc3ccccc3/C=C/C(=O)/C=C/c3ccc(Cl)cc3)ncnc12
b: Cc1cccc2c(Oc3ccccc3/C=C/C(=O)/C=C/c3c(Cl)cccc3Cl)ncnc12
Task: Which numeric IC50 is bigger, that of a or that of b ? Pick one; state its label.
Result: a

* * *

Each entry below carries its reported melting point.

query_smiles=Cc1cccc2c(Oc3ccccc3/C=C/C(=O)/C=C/c3cc([N+](=O)[O-])ccc3Cl)ncnc12 reported="198 to 200 °C"
query_smiles=Cc1ccc2ncnc(Oc3ccccc3/C=C/C(=O)/C=C/c3ccc(Cl)cc3)c2c1 reported="173 to 176 °C"
query_smiles=COc1ccc(OC)c(/C=C/C(=O)/C=C/c2ccccc2Oc2ncnc3ccc(C)cc23)c1 reported="122 to 123 °C"
query_smiles=COc1ccc(OC)c(/C=C/C(=O)/C=C/c2ccccc2Oc2ncnc3c(C)cccc23)c1 reported="176 to 178 °C"

Task: Would you kindly share the measured melting point for Cc1ccc2ncnc(Oc3ccccc3/C=C/C(=O)/C=C/c3ccc(Cl)cc3Cl)c2c1 ?
Result: 211 to 214 °C

Task: Now consider Cc1ccc2ncnc(Oc3ccccc3/C=C/C(=O)/C=C/c3ccccc3Cl)c2c1 .
Result: 152 to 154 °C

* * *

Each entry below carries its reported melting point.

Would you please look over these solved cases?
query_smiles=Cc1cccc2c(Oc3ccccc3/C=C/C(=O)/C=C/c3ccccc3Cl)ncnc12 assay_endpoint="melting point" reported="152 to 154 °C"
query_smiles=Cc1cccc2c(Oc3ccccc3/C=C/C(=O)/C=C/c3ccc(Cl)cc3Cl)ncnc12 assay_endpoint="melting point" reported="175 to 178 °C"
query_smiles=Cc1cccc2c(Oc3ccccc3/C=C/C(=O)/C=C/c3ccc(Cl)cc3)ncnc12 assay_endpoint="melting point" reported="161 to 163 °C"

Shift focus to the following entry.
Task: Would you kindly share the measured melting point for Cc1cccc2c(Oc3ccccc3/C=C/C(=O)/C=C/c3c(Cl)cccc3Cl)ncnc12 ?
Result: 161 to 163 °C
